PROTOCOL_DETAILS: Thermodynamic solubility of cocrystals (HPLC quantitation)
Assay type: physicochemical
STATED_CONDITIONS: FaSSGF (simulated gastric fluid, fasted state), 37 °C, pH 1.7, fassgf or other biorelevant, thermodynamic from solid, FaSSGF; shaken at 37° C./750 rpm for 24 hours; single replicate; read-out: Solubility
MEASUREMENT_TYPE: solubility at 24 h (µg/mL)
Numeric answer only, unit µg/mL assumed.

Prompt: Recorded solubility at 24 h of Cn1nc(OCC(F)F)cc1C(=O)Nc1cc([C@H]2C[C@@H](OC(=O)NC34CC(C3)C4)CO2)n[nH]1 [Compound I-2 Form A] , please.
Completion: 340

###

PROTOCOL_DETAILS: Thermodynamic solubility of cocrystals (HPLC quantitation)
Type: physicochemical
STATED_CONDITIONS: FaSSGF; shaken at 37° C./750 rpm for 24 hours; average
MEASUREMENT_TYPE: Average Solubility (µg/mL)
Reply with just the number (in µg/mL).

Prompt: # input molecule: Cn1nc(OCC(F)F)cc1C(=O)Nc1cc([C@H]2C[C@@H](OC(=O)NC34CC(C3)C4)CO2)n[nH]1 [Compound I-4 Form A] ; wanted: its Average Solubility
Completion: 370

Prompt: Another molecule: Cn1nc(OCC(F)F)cc1C(=O)Nc1cc([C@H]2C[C@@H](OC(=O)NC34CC(C3)C4)CO2)n[nH]1 [Compound 1-6 Form A]
Completion: 320

Prompt: Then Cn1nc(OCC(F)F)cc1C(=O)Nc1cc([C@H]2C[C@@H](OC(=O)NC34CC(C3)C4)CO2)n[nH]1 [Compound 1-5 Form A] ?
Completion: 310

Prompt: Cn1nc(OCC(F)F)cc1C(=O)Nc1cc([C@H]2C[C@@H](OC(=O)NC34CC(C3)C4)CO2)n[nH]1 [Componud I-3 Form A] , same question.
Completion: 390

###

I'd appreciate it if you could supply Average Solubility values for the items below.
PROTOCOL_DETAILS: Thermodynamic solubility of cocrystals (HPLC quantitation)
Format: physicochemical
STATED_CONDITIONS: FeSSIF; shaken at 37° C./750 rpm for 24 hours; average
The figure you give is taken to be in µg/mL; do not add the unit.

Prompt: So what does the record say about Average Solubility for Cn1nc(OCC(F)F)cc1C(=O)Nc1cc([C@H]2C[C@@H](OC(=O)NC34CC(C3)C4)CO2)n[nH]1 [Compound 1-5 Form A] ?
Completion: 820

Prompt: What about Cn1nc(OCC(F)F)cc1C(=O)Nc1cc([C@H]2C[C@@H](OC(=O)NC34CC(C3)C4)CO2)n[nH]1 [Compound I-4 Form A] ?
Completion: 880

Prompt: How about this compound: Cn1nc(OCC(F)F)cc1C(=O)Nc1cc([C@H]2C[C@@H](OC(=O)NC34CC(C3)C4)CO2)n[nH]1 [Componud I-3 Form A]
Completion: 490

Prompt: Continue with Cn1nc(OCC(F)F)cc1C(=O)Nc1cc([C@H]2C[C@@H](OC(=O)NC34CC(C3)C4)CO2)n[nH]1 [Compound 1-6 Form A]
Completion: 700

###

PROTOCOL_DETAILS: Thermodynamic solubility of cocrystals (HPLC quantitation)
Format: physicochemical
STATED_CONDITIONS: FaSSIF (simulated intestinal fluid, fasted state), 37 °C, pH 6.3, fassif, thermodynamic from solid, FaSSIF; shaken at 37° C./750 rpm for 24 hours; average; read-out: Average Solubility
MEASUREMENT_TYPE: solubility at 24 h (µg/mL)
Reply with just the number (in µg/mL).

Prompt: Given the compound Cn1nc(OCC(F)F)cc1C(=O)Nc1cc([C@H]2C[C@@H](OC(=O)NC34CC(C3)C4)CO2)n[nH]1 [Compound I-2 Form A] , what is its reported solubility at 24 h?
Completion: 290

###

Provide the recorded Average Solubility for the entries that follow.
PROTOCOL_DETAILS: Thermodynamic solubility of cocrystals (HPLC quantitation)
Type: physicochemical
STATED_CONDITIONS: DI Water; shaken at 25° C./750 rpm for 24 hours; average
Form entry: value (µg/mL) — number only.

Prompt: Average Solubility lookup needed for Cn1nc(OCC(F)F)cc1C(=O)Nc1cc([C@H]2C[C@@H](OC(=O)NC34CC(C3)C4)CO2)n[nH]1 [Compound 1-6 Form A] , thanks.
Completion: 330

Prompt: And then Cn1nc(OCC(F)F)cc1C(=O)Nc1cc([C@H]2C[C@@H](OC(=O)NC34CC(C3)C4)CO2)n[nH]1 [Compound I-2 Form A] , what is it?
Completion: 210

Prompt: Continue with Cn1nc(OCC(F)F)cc1C(=O)Nc1cc([C@H]2C[C@@H](OC(=O)NC34CC(C3)C4)CO2)n[nH]1 [Compound I-4 Form A]
Completion: 290

Prompt: Okay, and Cn1nc(OCC(F)F)cc1C(=O)Nc1cc([C@H]2C[C@@H](OC(=O)NC34CC(C3)C4)CO2)n[nH]1 [Compound 1-5 Form A] ?
Completion: 280

###

PROTOCOL_DETAILS: Thermodynamic solubility of cocrystals (HPLC quantitation)
Assay type: physicochemical
STATED_CONDITIONS: deionized water, 25 °C, pH 6.1, water, thermodynamic from solid, DI Water; shaken at 25° C./750 rpm for 24 hours; average; read-out: Average Solubility
MEASUREMENT_TYPE: solubility at 24 h (µg/mL)
Enter your answer as a number in µg/mL; do not include the unit.

Prompt: What does the data say about its solubility at 24 h? Entry: Cn1nc(OCC(F)F)cc1C(=O)Nc1cc([C@H]2C[C@@H](OC(=O)NC34CC(C3)C4)CO2)n[nH]1 [Componud I-3 Form A]
Completion: 300

###

PROTOCOL_DETAILS: Thermodynamic solubility of cocrystals (HPLC quantitation)
Format: physicochemical
STATED_CONDITIONS: DI Water; shaken at 25° C./750 rpm for 24 hours; single replicate
MEASUREMENT_TYPE: Solubility

Prompt: If you can, please state the reported Solubility value of Cn1nc(OCC(F)F)cc1C(=O)Nc1cc([C@H]2C[C@@H](OC(=O)NC34CC(C3)C4)CO2)n[nH]1 [Compound I-4 Form A] .
Completion: 290 µg/mL

Prompt: Also, Cn1nc(OCC(F)F)cc1C(=O)Nc1cc([C@H]2C[C@@H](OC(=O)NC34CC(C3)C4)CO2)n[nH]1 [Compound I-2 Form A] please.
Completion: 210 µg/mL

Prompt: Can you handle Cn1nc(OCC(F)F)cc1C(=O)Nc1cc([C@H]2C[C@@H](OC(=O)NC34CC(C3)C4)CO2)n[nH]1 [Componud I-3 Form A] next?
Completion: 300 µg/mL

Prompt: Input Cn1nc(OCC(F)F)cc1C(=O)Nc1cc([C@H]2C[C@@H](OC(=O)NC34CC(C3)C4)CO2)n[nH]1 [Compound 1-5 Form A]
Completion: 280 µg/mL

Prompt: Same read-out for Cn1nc(OCC(F)F)cc1C(=O)Nc1cc([C@H]2C[C@@H](OC(=O)NC34CC(C3)C4)CO2)n[nH]1 [Compound 1-6 Form A] ?
Completion: 330 µg/mL

###

PROTOCOL_DETAILS: Thermodynamic solubility of cocrystals (HPLC quantitation)
Assay type: physicochemical
STATED_CONDITIONS: FaSSIF (simulated intestinal fluid, fasted state), 37 °C, pH 6.3, fassif, thermodynamic from solid, FaSSIF; shaken at 37° C./750 rpm for 24 hours; single replicate; read-out: Solubility
Procedure: Base Buffer (FaSSGF), pH 1.6—Sodium chloride (2.03 g) was dissolved in Ca. 800 ml of deionised water in a 1 L volumetric flask. This solution was mixed thoroughly and then the pH adjusted to 1.6±0.05 with concentrated hydrochloric acid. The solution was then made to volume with deionised water and the pH recorded (pH 1.6). FaSSGF Media—Phares SIF (simulated intestinal fluid) powder (0.06 g) was dissolved in Ca. […] The final pH was recorded (pH 1.7) […] DI Water (deionized water)—The pH was recorded (pH 6.1) […]
MEASUREMENT_TYPE: solubility at 24 h (µg/mL)
Supply the numeric figure in µg/mL, leaving out any unit text.

Prompt: # solubility at 24 h lookup, item Cn1nc(OCC(F)F)cc1C(=O)Nc1cc([C@H]2C[C@@H](OC(=O)NC34CC(C3)C4)CO2)n[nH]1 [Compound I-2 Form A]
Completion: 290

###

PROTOCOL_DETAILS: Thermodynamic solubility of cocrystals (HPLC quantitation)
Type: physicochemical
STATED_CONDITIONS: deionized water, 25 °C, pH 6.1, water, thermodynamic from solid, DI Water; shaken at 25° C./750 rpm for 24 hours; single replicate; read-out: Solubility
MEASUREMENT_TYPE: solubility at 24 h
Answer format: number, then unit.

Prompt: Fill in the blank: the reported solubility at 24 h of Cn1nc(OCC(F)F)cc1C(=O)Nc1cc([C@H]2C[C@@H](OC(=O)NC34CC(C3)C4)CO2)n[nH]1 [Componud I-3 Form A] is ____.
Completion: 290 µg/mL
